Tested on: zebrafish embryos
Conditions Used: zebrafish embryos 72 hpf, 1 mg/mL
Marks after values point to notes of the source that are not given here.
Reported MOR (mortality rate) is given for each of the following compounds.
Readout Label: MOR (mortality rate)

> print(dat)
                                    compound  readout.value
 1  Cc1ccc2[nH]c3ccccc3c(=NC(=S)NNC(=O)c3ccncc3)c2c1         10% ^b
 2  COc1ccc2nc3ccccc3c(-n3c(-c4ccc([N+](=O)[O-])cc4)n[nH]c3=S)c2c1             0%
 3  COc1ccc2[nH]c3ccccc3c(=NC(=S)NNC(=O)c3ccncc3)c2c1         15% ^c
 4  COc1ccc2nc3ccccc3c(NC(=S)NNC(=O)c3ccccc3)c2c1         15% ^a
 5  COc1ccc(-c2nnc(N=C3c4ccccc4NC4C=CC(C)=CC34)s2)cc1 (centres unmarked)             0%
 6  CC1=CC2C(=Nc3nnc(-c4ccc([N+](=O)[O-])cc4)s3)c3ccccc3NC2C=C1 (centres unmarked)             0%
 7  COc1ccc(-n2c(-c3c4ccccc4nc4ccc(C)cc34)n[nH]c2=S)cc1             0%
 8  COc1ccc(C(=O)NNC(=S)Nc2c3ccccc3nc3ccc(OC)cc23)cc1         45% ^a
 9  COC1=CC2C(=Nc3nnc(-c4ccncc4)s3)c3ccccc3NC2C=C1 (centres unmarked)             0%
10  COC1=CC2C(=Nc3nnc(-c4ccc(Cl)cc4)s3)c3ccccc3NC2C=C1 (centres unmarked)         10% ^c
11  COc1ccc(C(=O)NNC(=S)Nc2c3ccccc3nc3ccc(C)cc23)cc1         15% ^a

====

Documented MOR (mortality rate) across a set of compounds
Test system: zebrafish embryos
Conditions Used: zebrafish embryos 72 hpf, 1.5 mg/mL
Marks after values point to notes of the source that are not given here.
Readout Label: MOR (mortality rate)

> print(dat)
                                    compound  readout.value
 1  COc1ccc(C(=O)NNC(=S)Nc2c3ccccc3nc3ccc(C)cc23)cc1 [4h]         15% ^a
 2  COc1ccc2[nH]c3ccccc3c(=NC(=S)NNC(=O)c3ccncc3)c2c1 [4a]         40% ^c
 3  COc1ccc2nc3ccccc3c(NC(=S)NNC(=O)c3ccccc3)c2c1 [4b]         15% ^a
 4  CC1=CC2C(=Nc3nnc(-c4ccc([N+](=O)[O-])cc4)s3)c3ccccc3NC2C=C1 (centres unmarked) [6i]             0%
 5  COC1=CC2C(=Nc3nnc(-c4ccncc4)s3)c3ccccc3NC2C=C1 (centres unmarked) [6a]             0%
 6  COc1ccc(C(=O)NNC(=S)Nc2c3ccccc3nc3ccc(OC)cc23)cc1 [4c]         25% ^a
 7  COc1ccc(-n2c(-c3c4ccccc4nc4ccc(C)cc34)n[nH]c2=S)cc1 [5h]             0%
 8  COc1ccc2nc3ccccc3c(-n3c(-c4ccc([N+](=O)[O-])cc4)n[nH]c3=S)c2c1 [5d]             0%
 9  Cc1ccc2[nH]c3ccccc3c(=NC(=S)NNC(=O)c3ccncc3)c2c1 [4f]         20% ^b
10  COC1=CC2C(=Nc3nnc(-c4ccc(Cl)cc4)s3)c3ccccc3NC2C=C1 (centres unmarked) [6e]         30% ^c
11  COc1ccc(-c2nnc(N=C3c4ccccc4NC4C=CC(C)=CC34)s2)cc1 (centres unmarked) [6h]             0%
